experiment: soluble on expression in E. coli; label from the status in PepcDB or PDB records
MEASURE: soluble on expression in E. coli

| SEQUENCE_INPUT | MEASUREMENT |
| --- | --- |
| MGSDKIHHHHHHMSRNSPLEISRTLVAALSTQMFRYYEDRIPQDASVLVVSNHRSFMDALILMAALSSPIRFACHHYMGQVPVMREIVTGQLGCFPLEETQNRQQSFFSQSQLLLQSKQMVGVFPEGTAPMVKSTQPNQVGEFQRGFAHLALRADVQDLAILPIAIASLEEVNTNGFPLRLLSVFDPSEPLFNQAGWHPLVIYRRVAVLIGRPYWITPQHQKKYHGKQARTVVAELTEHCHGEISHLLRQGCY | not soluble |
| MVKVKIYYKDREWPPEYRKVLEKMKEIIDPVTGESILDSGVLAGLEVKGDTLKVWLKFESNAEYNILGSAAMAYSKIVGDIMEKFALVMFDKVYVYDLGNNPIGIFENKGNGRK | soluble |
| MGSDKIHHHHHHMSTAVTFFGQHVLNRVSFLRCSKEFIKKSLNHDSTVFIPFIEGEALISPENGDLVQLSNSVKSYKNILSAIVPLYTTLLNTTRSRSDESGINVTFLGLLEGTDSAFNFEWSNISYKGTPYFGLDIRVTESTLFKKVDFEPIFSYPKVTRDHIFKQTNEDASLYSQGKMYLDWLAKYKFCPGCGSPLFPVEAGTKLQCSNENRNVYCNVRDARINNVCFPRTDPTVIIALTNSDYSKCCLARSKKRYGDFVLYSTIAGFMEPSETIEEACIREIWEETGISCKNIDIVRSQPWPYPCSLMIGCLGIVQFNSKNEVINLNHDDELLDAQWFDTTEIIQALDKYAGGYRVPFKNDINLPGSTTIAFQLINHVCENYKNLRKTSSSHL | not soluble |
| MVVVTGREPDSRRQDGAMSSSDAEDDFLEPATPTATQAGHALPLLPQEFPEVVPLNIGGAHFTTRLSTLRCYEDTMLAAMFSGRHYIPTDSEGRYFIDRDGTHFGDVLNFLRSGDLPPRERVRAVYKEAQYYAIGPLLEQLENMQPLKGEKVRQAFLGLMPYYKDHLERIVEIARLRAVQRKARFAKLKVCVFKEEMPITPYECPLLNSLRFERSESDGQLFEHHCEVDVSFGPWEAVADVYDLLHCLVTDLSAQGLTVDHQCIGVCDKHLVNHYYCKRPIYEFKITW | soluble |
| MSLSAGDSMPGPKSTFRVGVWEDRNKKCRRTMEDTHAFLYNFVQTPALNDASAKDKPEGDDLVTSDMVESDNGYFAIFDGHAGTFAADWCGKKLHIILEDIIRKNPNALIPEVLDQAFTAADAQLEKLPLKNSGCTAAVAVLRWEDRASNDRSAIKPVKPEEPIEMDKANDGSSNEEATKATNSKGKGSGRQRVLYTANVGDARIILCRGGKALRLSYDHKGSDEVEGKRIAAAGGLILNNRVNGVLAVTRALGDAYMKKLVTGHPYTTETVIQPDSDEFIIIACDGIWDVCSDQEAVDLVRNVNDPISASKQLVDYALNRFSTDNLSCMVVRLDQNKEAAVEEGHHHHHH | soluble |

From: the DeepSol protein solubility set
